Recorded values, source ChEMBL document CHEMBL1140765.

Field: inhibition. Provide a value for each of the molecules that follow.
Target: Prostaglandin G/H synthase 1 (Ovis aries)
Sequence (whole entry): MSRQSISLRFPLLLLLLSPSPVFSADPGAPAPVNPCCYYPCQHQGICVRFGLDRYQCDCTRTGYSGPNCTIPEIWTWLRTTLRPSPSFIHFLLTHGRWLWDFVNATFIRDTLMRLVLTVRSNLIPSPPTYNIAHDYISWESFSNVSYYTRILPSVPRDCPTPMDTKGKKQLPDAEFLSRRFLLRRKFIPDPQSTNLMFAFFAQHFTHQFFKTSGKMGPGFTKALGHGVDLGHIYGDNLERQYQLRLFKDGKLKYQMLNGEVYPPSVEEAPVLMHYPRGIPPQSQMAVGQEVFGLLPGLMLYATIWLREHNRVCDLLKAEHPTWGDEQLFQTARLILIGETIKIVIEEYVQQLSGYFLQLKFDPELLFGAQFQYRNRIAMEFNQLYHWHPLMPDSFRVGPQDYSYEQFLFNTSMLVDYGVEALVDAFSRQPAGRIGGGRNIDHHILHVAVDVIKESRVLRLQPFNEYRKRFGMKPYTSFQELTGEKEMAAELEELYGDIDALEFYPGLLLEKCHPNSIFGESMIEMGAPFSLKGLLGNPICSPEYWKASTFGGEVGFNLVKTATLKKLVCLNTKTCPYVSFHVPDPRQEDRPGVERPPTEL
Experiment: Inhibition of ovine COX1 at 10 uM
Answers are plain numbers, in %.

Worked set:
COc1ccc(-c2c(-c3ccc(S(C)(=O)=O)cc3)nc3sc(S(N)(=O)=O)nn23)cc1
13.3
COc1ccc(-c2c(-c3ccc(SC)cc3)nc3sc(C(F)(F)F)nn23)cc1
10.5
COc1ccc(-c2nc3sc(S(N)(=O)=O)nn3c2-c2ccc(OC)cc2)cc1
28.1
COc1ccc(-c2c(-c3ccc(F)cc3)nc3sc(S(N)(=O)=O)nn23)cc1
12.9
COc1ccc(-c2c(-c3ccccc3)nc3sc(C(F)(F)F)nn23)cc1
30.6
COc1ccc(-c2nc3sc(C(F)(F)F)nn3c2-c2ccc(OC)cc2)cc1
15.5

For each of the items listed, what is its inhibition?
1. CS(=O)(=O)c1ccc(-c2nc3sc(C(F)(F)F)nn3c2-c2ccccc2)cc1
2. CSc1ccc(-c2nc3sc(C(F)(F)F)nn3c2-c2ccccc2)cc1

OUTPUT:
[8.6, 14.2]

====

System: Rattus norvegicus
Experiment: Antiinflammatory activity in Albino rat assessed as reduction of carrageenan-induced paw edema volume at 10 mg/kg, po after 4 hrs
Assay type: functional
Set-up: scale not given: the % may be the effect or the level left
Where Activity equals or exceeds 50%, the correct label is rule met; where it does not, the label is rule not met.

Here's what some known entries look like.
COc1ccc(-c2c(-c3ccc(F)cc3)nc3sc(S(N)(=O)=O)nn23)cc1
rule met
Cc1ccc(-c2cc(C(F)(F)F)nn2-c2ccc(S(N)(=O)=O)cc2)cc1
rule met
CS(=O)(=O)c1ccc(-c2nc3sc(C(F)(F)F)nn3c2-c2ccccc2)cc1
rule met

Consider now this further compound.
INPUT: Given COc1ccc(-c2c(-c3ccccc3)nc3sc(C(F)(F)F)nn23)cc1 , state whether its Activity is at least 50%.
OUTPUT: rule not met

====

Test system: Rattus norvegicus
Assay: Antiinflammatory activity in Albino rat assessed as reduction of carrageenan-induced paw edema volume at 10 mg/kg, po after 2 hrs
Format: functional
Parameters: scale not given: the % may be the effect or the level left
Cut-off 40% on Activity: below means Fulfilled, at or above means Not fulfilled.

Here's what some known entries look like.
Cc1ccc(-c2cc(C(F)(F)F)nn2-c2ccc(S(N)(=O)=O)cc2)cc1
Not fulfilled
COc1ccc(-c2c(-c3ccccc3)nc3sc(C(F)(F)F)nn23)cc1
Fulfilled
COc1ccc(-c2nc3sc(C(F)(F)F)nn3c2-c2ccc(OC)cc2)cc1
Fulfilled
COc1ccc(-c2c(-c3ccc(SC)cc3)nc3sc(C(F)(F)F)nn23)cc1
Not fulfilled
CSc1ccc(-c2nc3sc(C(F)(F)F)nn3c2-c2ccccc2)cc1
Fulfilled

INPUT: Consider the compound COc1ccc(-c2c(-c3ccc(S(C)(=O)=O)cc3)nc3sc(S(N)(=O)=O)nn23)cc1 . Is its Activity strictly less than 40%?
OUTPUT: Not fulfilled

INPUT: Consider the compound COc1ccc(-c2nc3sc(S(N)(=O)=O)nn3c2-c2ccc(OC)cc2)cc1 . Is its Activity strictly less than 40%?
OUTPUT: Fulfilled

INPUT: Consider the compound CS(=O)(=O)c1ccc(-c2nc3sc(C(F)(F)F)nn3c2-c2ccccc2)cc1 . Is its Activity strictly less than 40%?
OUTPUT: Not fulfilled

INPUT: Consider the compound COc1ccc(-c2c(-c3ccc(F)cc3)nc3sc(S(N)(=O)=O)nn23)cc1 . Is its Activity strictly less than 40%?
OUTPUT: Not fulfilled

====

Test system: Rattus norvegicus
Experiment: Antiinflammatory activity in Albino rat assessed as reduction of carrageenan-induced paw edema volume at 10 mg/kg, po after 4 hrs
Assay type: functional
Set-up: scale not given: the % may be the effect or the level left
Cut-off 50% on Activity: below means met, at or above means not met.

Here's what some known entries look like.
CSc1ccc(-c2nc3sc(C(F)(F)F)nn3c2-c2ccccc2)cc1
not met
COc1ccc(-c2c(-c3ccc(SC)cc3)nc3sc(C(F)(F)F)nn23)cc1
not met
COc1ccc(-c2c(-c3ccc(S(C)(=O)=O)cc3)nc3sc(S(N)(=O)=O)nn23)cc1
not met

Consider now this further compound.
INPUT: Consider the compound COc1ccc(-c2nc3sc(S(N)(=O)=O)nn3c2-c2ccc(OC)cc2)cc1 . Is its Activity strictly less than 50%?
OUTPUT: met
